Readings of phosphorylation enrichment for the listed sequences
- assayed.system: Hck (UniProt P08631)
- Sequence (P08631 whole entry, looked up): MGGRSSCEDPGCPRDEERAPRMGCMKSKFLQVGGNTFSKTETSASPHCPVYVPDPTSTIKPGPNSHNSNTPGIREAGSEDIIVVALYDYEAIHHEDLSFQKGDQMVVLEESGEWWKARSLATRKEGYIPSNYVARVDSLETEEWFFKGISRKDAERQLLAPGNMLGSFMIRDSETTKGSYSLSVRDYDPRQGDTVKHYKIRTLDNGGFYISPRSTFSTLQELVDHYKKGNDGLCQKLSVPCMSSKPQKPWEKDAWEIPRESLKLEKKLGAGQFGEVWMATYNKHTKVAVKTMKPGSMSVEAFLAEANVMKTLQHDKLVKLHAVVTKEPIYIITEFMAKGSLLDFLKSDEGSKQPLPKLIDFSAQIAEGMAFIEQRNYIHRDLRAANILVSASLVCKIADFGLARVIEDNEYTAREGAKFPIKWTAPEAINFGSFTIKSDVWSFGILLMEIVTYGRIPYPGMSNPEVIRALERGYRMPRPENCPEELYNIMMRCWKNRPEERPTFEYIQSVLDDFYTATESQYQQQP
- experiment.notes: phosphorylation enrichment, bacterial display (enrichment ratio); higher = better substrate or ligand; peptides without Tyr show the background;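 further: 11-residue human phosphosite peptides and single-mutation variants displayed on the E. coli surface, counted by deep sequencing, each peptide's frequency after selection divided by its frequency in the unselected input library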;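 further: frequency after pTyr selection over input frequency; kinase dosed for 20-30% of maximal phosphorylation in three min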
parameter.measured: phosphorylation enrichment

INSERT INTO assay_data (item_sequence, parameter_measured, recorded_measurement) VALUES
  ('CYSSEYHYVGG [CTSC_Y345_Y340C]', 'phosphorylation enrichment', 2.29),
  ('LLRLAYLADIF [ZBED5_Y476]', 'phosphorylation enrichment', 0.54),
  ('VKYGAYINDFK [GLB1_Y488_N484K]', 'phosphorylation enrichment', 0.379),
  ('FRGFSYDDIPD [TMEM230_Y112_YF]', 'phosphorylation enrichment', 0.609),
  ('PLGKDYRKAEG [MAP1A_Y1909]', 'phosphorylation enrichment', 0.945),
  ('SHMVDYQPFRK [TEX37_Y25_YF]', 'phosphorylation enrichment', 0.732),
  ('PGVNFYFQVSA', 'phosphorylation enrichment', 0.526),
  ('KLVQLYDVCTK [BTK_Y461_G462D]', 'phosphorylation enrichment', 4.92),
  ('AGGTRYRFVSQ [UCN3_Y95_R91G_YF]', 'phosphorylation enrichment', 0.338),
  ('GGGMFYPLDLF', 'phosphorylation enrichment', 0.499),
  ('GEETDYTPVWC [UROD_Y30]', 'phosphorylation enrichment', 0.556),
  ('ADKSAYLMGVN [MYH7_Y386_L390V]', 'phosphorylation enrichment', 0.401),
  ('AAVLNYKAWRD [GRIN2A_Y737_G740W]', 'phosphorylation enrichment', 0.436),
  ('IVAEFYDNLPH [DEGS1_Y284_A280V_YF]', 'phosphorylation enrichment', 3.36),
  ('AGVDRYSLGTS [C5orf42_Y1451_P1446A]', 'phosphorylation enrichment', 0.455),
  ('SIKDKYVTAFY [KCNH2_Y611_L615F]', 'phosphorylation enrichment', 0.414),
  ('LNCDRYSVGLL [PDE6A_Y275]', 'phosphorylation enrichment', 0.889),
  ('KTDKKYLMIKE [BAG3_Y451_E455K]', 'phosphorylation enrichment', 0.368),
  ('ETCLAYMEKRI [TEKT1_Y118_R119M]', 'phosphorylation enrichment', 0.56),
  ('LNAGAYSKVVE [PPT1_Y172_Q177E]', 'phosphorylation enrichment', 0.411),
  ('EKQLLYSENKT [FRK_Y132]', 'phosphorylation enrichment', 0.85),
  ('KRISCYEASYQ [PFKFB3_Y194]', 'phosphorylation enrichment', 0.529),
  ('SIIKDSFHRGA [GATM_Y203_Y203S]', 'phosphorylation enrichment', 0.394),
  ('RDSQIYAVDFE [MRPS34_Y34_L33I_YF]', 'phosphorylation enrichment', 2.83),
  ('LKYAIYFEARE [LAMA2_Y1258]', 'phosphorylation enrichment', 1.67),
  ('HRGSLYLAIEF [TEK_Y899_Y897S_YF]', 'phosphorylation enrichment', 0.48),
  ('VTSLKYSTSPF [BRIP1_Y916_YF]', 'phosphorylation enrichment', 0.464),
  ('HKNNNYEPNLF [BRCA2_Y57]', 'phosphorylation enrichment', 0.61),
  ('KGPNVYKKTVN [REV3L_Y1156]', 'phosphorylation enrichment', 0.414),
  ('ILGTFYETGSI [PAX2_Y73_R71T_YF]', 'phosphorylation enrichment', 0.621),
  ('VEKGSYSALRA [ABCC2_Y845_L849R]', 'phosphorylation enrichment', 0.351),
  ('RRFLFYFSFLL [PTEN_Y177_V175L_YF]', 'phosphorylation enrichment', 0.541),
  ('RRVLVYVGRGA [QDPR_Y16_G17V]', 'phosphorylation enrichment', 0.506),
  ('YKPGFYNLKEK [LAMA1_Y490_C485Y]', 'phosphorylation enrichment', 0.397),
  ('FIGVTYKNEED [PDGFRA_Y993_YF]', 'phosphorylation enrichment', 0.451),
  ('CTLLPYYSAPV [DGKE_Y269_R273P]', 'phosphorylation enrichment', 1.14),
  ('PRARTYCFKQE [KLHDC9_Y175_S171R_YF]', 'phosphorylation enrichment', 0.502),
  ('SEDANYKRVSC [TTC3_Y1288]', 'phosphorylation enrichment', 0.532),
  ('KPPFSYNALIR [FOXG1_Y186_M191R]', 'phosphorylation enrichment', 0.53),
  ('IKGIRYLHHRG [GUCY2D_Y656]', 'phosphorylation enrichment', 0.344),
  ('MARDIYRASFF [ALK_Y1278_YF]', 'phosphorylation enrichment', 0.661),
  ('GAPATYEGDAR [CACNA1A_Y1013]', 'phosphorylation enrichment', 0.467),
  ('VRTSKYRGGGG [HBA1_Y141_L137R]', 'phosphorylation enrichment', 0.424),
  ('TRSFKYLLLSM [NF1_Y491_YF]', 'phosphorylation enrichment', 0.44),
  ('CTTIHYHFMCN [TP53_Y234_N235H_YF]', 'phosphorylation enrichment', 0.48),
  ('SNMPTYSGHFT [GRIN2A_Y1224]', 'phosphorylation enrichment', 1.47),
  ('FLLTVYSIFSK [SGCE_Y38]', 'phosphorylation enrichment', 2.3),
  ('NYYDTCIKTCL [IQGAP2_Y1445_Y1445C]', 'phosphorylation enrichment', 1.51),
  ('SPRDTYSDRSG [CTPS1_Y567]', 'phosphorylation enrichment', 0.507),
  ('HLVSEYQQFQD [TUBB3_Y422_D417H_YF]', 'phosphorylation enrichment', 0.524),
  ('DRLAVYIDRVS [LMNA_Y45_R50S]', 'phosphorylation enrichment', 0.503),
  ('YQCKHYACIRQ [TIMP3_Y182_S179C]', 'phosphorylation enrichment', 0.275),
  ('PVQAAYQKVEA [HBB_Y131_V135E]', 'phosphorylation enrichment', 0.653),
  ('QRAADYYSQQM [GBP6_Y333]', 'phosphorylation enrichment', 0.611),
  ('MSRDIYSTDYY [NTRK1_Y676]', 'phosphorylation enrichment', 3.99),
  ('AELVRYFMEHH [PTPN11_Y80_Q79R_YF]', 'phosphorylation enrichment', 0.46),
  ('FRNSLYAPDFS [FAM92A_Y226_YF]', 'phosphorylation enrichment', 1.23),
  ('GIVKAYFVHAR [AIPL1_Y267_R270H_YF]', 'phosphorylation enrichment', 0.461);

---

- Test system: Fer (mouse)
- experiment.notes: phosphorylation enrichment, bacterial display (enrichment ratio); higher = better substrate or ligand; peptides without Tyr show the background
Consider the following partition of reported phosphorylation enrichment into named classes: low (below 0.4), medium (0.4 to below 0.7), high (0.7 or more)

INSERT INTO assay_data (item_sequence, class_label) VALUES
  ('QWPGPYDRPGA [HNRNPH2_Y210_R206W]', 'high'),
  ('ISSLRYKLLEE [TRPC6_Y896_E897K]', 'low'),
  ('SREALYNEMDP [CACNA1A_Y794]', 'high'),
  ('TTIVSYRASQP [MKI67_Y1737_K1734I]', 'medium'),
  ('TSKLNYLDPRI [TOP1_Y723]', 'low'),
  ('AEEPIYIIVPA [BMXtide_2014]', 'high'),
  ('DEEPPYRGPFC [SASH1_Y551]', 'medium'),
  ('DEIPLYLKGGV [COX7A2_Y44]', 'medium'),
  ('CNNFICGGCRG [SPINT2_Y163_Y163C]', 'medium'),
  ('KRISCYEASYQ [PFKFB3_Y194]', 'medium'),
  ('MSRFIYSTDFF [NTRK1_Y676_D674Y_YF]', 'high');

---

- assayed.system: FGFR3 (UniProt P22607)
- Sequence (P22607 whole entry, looked up): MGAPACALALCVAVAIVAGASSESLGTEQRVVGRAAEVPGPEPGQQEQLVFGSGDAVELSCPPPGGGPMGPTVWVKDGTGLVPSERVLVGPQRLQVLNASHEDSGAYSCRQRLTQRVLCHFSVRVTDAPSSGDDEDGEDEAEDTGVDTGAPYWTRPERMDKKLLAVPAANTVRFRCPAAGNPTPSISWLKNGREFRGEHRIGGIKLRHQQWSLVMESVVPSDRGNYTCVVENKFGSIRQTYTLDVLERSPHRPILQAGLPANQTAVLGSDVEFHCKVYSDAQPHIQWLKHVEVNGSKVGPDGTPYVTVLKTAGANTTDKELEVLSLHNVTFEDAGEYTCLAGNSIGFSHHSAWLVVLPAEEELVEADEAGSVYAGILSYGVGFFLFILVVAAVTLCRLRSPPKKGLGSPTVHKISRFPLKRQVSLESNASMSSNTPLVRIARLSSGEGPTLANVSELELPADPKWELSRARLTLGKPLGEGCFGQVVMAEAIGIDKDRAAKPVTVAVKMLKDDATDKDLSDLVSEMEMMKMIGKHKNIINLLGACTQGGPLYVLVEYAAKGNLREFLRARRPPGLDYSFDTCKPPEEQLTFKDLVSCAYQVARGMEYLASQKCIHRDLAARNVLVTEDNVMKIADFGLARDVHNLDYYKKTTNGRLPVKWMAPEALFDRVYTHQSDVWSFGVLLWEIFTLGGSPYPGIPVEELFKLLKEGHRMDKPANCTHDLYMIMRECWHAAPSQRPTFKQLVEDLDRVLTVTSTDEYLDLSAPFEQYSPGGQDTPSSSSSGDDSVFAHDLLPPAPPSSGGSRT
- experiment.notes: phosphorylation enrichment, bacterial display (enrichment ratio); higher = better substrate or ligand; peptides without Tyr show the background
Classification field: condition met = phosphorylation enrichment at or over 0.5; condition not met = phosphorylation enrichment under 0.5.

INSERT INTO assay_data (item_sequence, class_label) VALUES
  ('QGLRLYRPHLP [BTK_Y617_A622P]', 'condition not met'),
  ('KKLEVYQSIAD [MYBPC3_Y548]', 'condition met'),
  ('VKMLLYTEVTR [GDI1_Y93]', 'condition met'),
  ('KNRDVSSSDFF [USP24_Y2134_Y2134S_YF]', 'condition met'),
  ('IFRAAYFGVFD [SLC25A4_Y191_YF]', 'condition met'),
  ('KTTGGYAGGLS [KRT8_Y419_S417G]', 'condition not met'),
  ('LFMGDYVDRGF [PPP2CA_Y86_YF]', 'condition met'),
  ('PEVRRYVLPLN [RPE65_Y368]', 'condition met'),
  ('SEDANYKRVSC [TTC3_Y1288]', 'condition met'),
  ('EFLHKYKGFKI [SYNE1_Y6953_Q6951H_YF]', 'condition met'),
  ('HEVHIYEKSGA [ARPC1B_Y35]', 'condition met'),
  ('GQETSYIEDNC [PAH_Y24]', 'condition met'),
  ('NKEAIYSGYIR [SMCHD1_Y283]', 'condition met');
